The following compounds each carry a recorded IC50 for SARS-CoV-2 3CL-protease (Severe acute respiratory syndrome coronavirus 2, UniProt P0DTD1).

item-smiles	measurement-target	IC50
CC(C)C[C@@H](C(=O)N1C[C@]2(C[C@H]1C#N)C(=O)Nc1ccccc12)N(C)C(=O)c1ccc(F)c(F)c1	SARS-CoV-2 3CL-protease (Severe acute respiratory syndrome coronavirus 2, UniProt P0DTD1)	< 100 nM
CC(C)(C)C[C@H](NC(=O)c1cn(C2CC2)nn1)C(=O)N1C[C@]2(C[C@H]1C#N)C(=O)Nc1ccccc12	SARS-CoV-2 3CL-protease (Severe acute respiratory syndrome coronavirus 2, UniProt P0DTD1)	< 100 nM

[Q] # IC50 lookup, item CC(C)C[C@@H](C(=O)N1C[C@]2(C[C@H]1C#N)C(=O)Nc1ccccc12)N(C)C(=O)c1cnc2cccnc2c1
[A] 100 to 1000 nM

[Q] Item under review: CCCC[C@H](NC(=O)c1cnn(C(C)(C)C)c1)C(=O)N1C[C@]2(C[C@H]1C#N)C(=O)Nc1ccccc12 . Reported IC50?
[A] < 100 nM

[Q] // lookup IC50 for Cc1cnc2ccc(C(=O)N[C@@H](CC(C)(C)C)C(=O)N3C[C@]4(C[C@H]3C#N)C(=O)Nc3ccccc34)cc2c1
[A] < 100 nM

[Q] Which IC50 is listed for CC(C)C[C@@H](C(=O)N1C[C@]2(C[C@H]1C#N)C(=O)Nc1ccc(-c3cnoc3)cc12)N(C)C(=O)c1cc2c(F)cc(F)cc2[nH]1 ?
[A] < 100 nM

[Q] Look up IC50: CC(C)N(C(=O)OC(C)(C)C)[C@@H](Cc1ccccc1)C(=O)N1C[C@]2(C[C@H]1C#N)C(=O)Nc1ccccc12
[A] > 1000 nM

---

measurement-target: SARS-CoV-2 3CL-protease (Severe acute respiratory syndrome coronavirus 2)
property-label: IC50

[Q] Checklist item: IC50 tested on SARS-CoV-2 3CL-protease (Severe acute respiratory syndrome coronavirus 2), entry CC(C)C[C@@H](C(=O)N1C[C@]2(C[C@H]1C#N)C(=O)Nc1ccccc12)N(C)C(=O)c1cc(OC2CC2)c2nc(Cl)ccc2c1 [Example 310] , value?
[A] < 100 nM

---

Consider the following IC50 values measured on SARS-CoV-2 3CL-protease (Severe acute respiratory syndrome coronavirus 2, UniProt P0DTD1).

compound	IC50
Cc1cccc2c1[C@@]1(C[C@@H](C#N)N(C(=O)[C@H](CC(C)C)NC(=O)c3cc4c(F)cccc4[nH]3)C1)C(=O)N2 [Example 529]	100 to 1000 nM
Cc1ccc2cc(C(=O)N(C)[C@@H](CC(C)C)C(=O)N3C[C@]4(C[C@H]3C#N)C(=O)Nc3ccc(Cl)cc34)[nH]c2n1 [Example 469]	< 100 nM
CC(C)C[C@@H](C(=O)N1C[C@]2(C[C@H]1C#N)C(=O)Nc1ccccc12)N(C)C(=O)NCc1ccccc1 [Example 433]	< 100 nM
Cc1cnc2[nH]c(C(=O)N(C)[C@@H](CC3CC3)C(=O)N3C[C@]4(C[C@H]3C#N)C(=O)Nc3ccc(Cl)cc34)cc2c1 [Example 461]	< 100 nM

[Q] Hello, I am looking for reported IC50 with SARS-CoV-2 3CL-protease (Severe acute respiratory syndrome coronavirus 2, UniProt P0DTD1) for CC(C)C[C@@H](C(=O)N1C[C@]2(C[C@H]1C#N)C(=O)Nc1ccccc12)N(C)C(=O)c1cc(Cl)c2ncc(C(F)(F)F)cc2c1 [Example 240] . Could you help?
[A] < 100 nM
